Measured values drawn from patent US20210395344A1 for this set.

Biological target: T1, Acro COVID S1 (S1N-C82E8) (SARS-CoV-2, UniProt P0DTC2 16-685)
T1 construct: domain: S1 (subunit 1)
Assay: phage ELISA
assayReadout: specificity ELISA, fold over background (fold over background)
The figure you give is taken to be in fold over background; do not add the unit.

binder	specificity ELISA, fold over background (fold over background)
SARS-CoV-2 variant 1-28 (antibody, V domains shown) VH: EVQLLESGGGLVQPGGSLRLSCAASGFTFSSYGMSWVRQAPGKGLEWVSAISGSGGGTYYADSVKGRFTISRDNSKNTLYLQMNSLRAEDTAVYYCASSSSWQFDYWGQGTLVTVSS VL: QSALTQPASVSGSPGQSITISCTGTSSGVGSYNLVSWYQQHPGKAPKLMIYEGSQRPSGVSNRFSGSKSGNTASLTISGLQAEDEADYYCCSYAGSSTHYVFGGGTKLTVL	1
SARS-CoV-2 variant 1-33 (antibody, V domains shown) VH: EVQLLESGGGLVQPGGSLRLSCAASGFTFSSYAMIWVRQAPGKGLEWVSAISGSGGSTFYADSVKGRFTISRDNSKNTLYLQMNSLRAEDTAVYYCTRPPYGDYGDYWGQGTLVTVSS VL: QSALTQPASVSGSPGQSITISCTGTSSDVGSYNLLSWYQQHPGKAPKLMIYEASKRPSGVSNRFSGSKSGNTASLTISGLQAEDEADYYCCSYAGSRTPVVFGGGTKLTVL	7.1

For the next question, use this binder.
Record SARS-CoV-2 variant 1-42 (antibody, V domains shown) VH: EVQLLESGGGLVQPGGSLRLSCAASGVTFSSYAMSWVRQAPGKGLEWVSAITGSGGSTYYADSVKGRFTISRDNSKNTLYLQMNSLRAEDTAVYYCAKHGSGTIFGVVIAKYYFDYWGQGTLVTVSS VL: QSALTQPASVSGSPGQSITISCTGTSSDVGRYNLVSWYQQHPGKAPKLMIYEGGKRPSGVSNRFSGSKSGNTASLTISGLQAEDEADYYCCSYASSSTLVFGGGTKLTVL . Reported specificity ELISA, fold over background: 22.7
